Tested on: CDK8
Conditions: concentration: 1 μM, replicates: in singlicate; n = 1;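 also: KINOMEscan kinase panel screen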
ENDPOINT NAME: %Inh (%)
Please reply with the bare figure in % and do not write the unit itself.

The cases that follow already have their %Inh on record.
• COc1ccc(CNC(=O)NC2CCN(c3ccnc(Nc4ccc(F)cc4)n3)C2)cc1 (stereo not drawn) = 60
• Fc1cccc(CSc2nnc(-c3ccc4c(c3)CCO4)o2)c1 = 0
• O=C1NC(=O)C(c2ccccc2)=C1Nc1cccc(O)c1 = 0

## Task Indicate the recorded %Inh value for this compound: `COc1cc2ncn(-c3cc(OCCCc4ccccc4)c(C(N)=O)s3)c2cc1OC`
## Result 4

## Task Supply recorded %Inh for `OCCCNc1nccc(-c2c(-c3cccc(C(F)(F)F)c3)nn3cc(C(F)(F)F)ccc23)n1` here.
## Result 15

## Task Output measured %Inh for this item: `Cc1nn2c(=O)cc(N3CCOCC3)nc2n1Cc1cccc(Cl)c1Cl`
## Result 0

----------
System: SIK2
Conditions: concentration: 1 μM, replicates: in singlicate; n = 1
ENDPOINT NAME: %Inh
Mention the unit after the number when you answer.

## Task State, in one line, measured %Inh of `COC(=O)c1c(-c2ccccc2)c2cc(C)ccc2c(=O)n1Cc1ccccc1`
## Result 0%

----------
Overview of recorded %Inh for various molecules
Tested on: SNARK
Construct: gene NUAK2
Details: concentration: 1 μM, replicates: in singlicate; n = 1

• COc1cccc(C2=C(Nc3cccc(C(=O)O)c3)C(=O)NC2=O)c1 = 72%

## Task Recall the reported %Inh of `C[C@@H]1CC[C@H](C(=O)NC2CCCCC2)CN1c1cc(-c2ccc3c(N)n[nH]c3c2)nc(N)n1` on SNARK and write it down.
## Result 31%

## Task Quote SNARK %Inh for entry `COc1cc2ncn(-c3cc(OCCCc4ccccc4)c(C(N)=O)s3)c2cc1OC` .
## Result 0%

----------
System: MAP3K15
Settings: concentration: 1 μM, replicates: in singlicate; n = 1
Exam item: assign Y to entries whose %Inh is below 2% and N to entries at or above 2%. Note that a value of exactly 2% receives N.

• CCC(=O)c1c(-c2ccccc2)c2cc(Cl)ccc2c(=O)n1Cc1cc(C(=O)NC2CC2)n(C)n1 = N
• COC(=O)c1c(-c2ccccc2)c2cc(Br)ccc2c(=O)n1Cc1ccc(NC(=O)CCC(=O)O)cc1 = N
• COc1ccc(Nc2nccc(N3CCC(NS(=O)(=O)c4ccc(NC(C)=O)cc4)C3)n2)cc1 (stereo not drawn) [GSK1379729] = N

## Task Is it true that %Inh reported for O=C(Nc1n[nH]c2cc(-c3ccccc3F)ccc12)C1CC1 [SB-733371] is less than 2%?
## Result N

## Task Dear reviewer, please state whether Cc1cc(Nc2nc(-c3cccc(C)n3)nc3ccccc23)ccn1 [GW872411] has %Inh strictly beneath 2%.
## Result Y

## Task Dear reviewer, please state whether O=C(Nc1n[nH]c2nc(-c3ccccc3)c(Br)cc12)C1CC1 [SB-708998] has %Inh strictly beneath 2%.
## Result N

## Task Say whether its %Inh is strictly beneath 2%. Entry: CCS(=O)(=O)c1ccc(OC)c(Nc2ncc(-c3ccc(F)cc3)o2)c1.Cl [GW591947]
## Result Y

## Task Item Nc1n[nH]c2nnc(-c3ccccc3)c(-c3ccccc3)c12 [GW554060] : %Inh beneath 2%, strictly?
## Result Y

----------
The entries below come with measured %Inh values attached.
Tested on: EPHB6
Settings: concentration: 1 μM, replicates: in singlicate; n = 1
Reply numerically in %, unit not repeated.

• Cc1nc(N(C)[C@H]2CN(C(=O)CC#N)CC[C@H]2C)c2cc[nH]c2n1 = 19

## Task Supply recorded %Inh for `COc1cc2ncn(-c3cc(OCc4ccncc4)c(C(N)=O)s3)c2cc1OC` here.
## Result 22

## Task Return value of %Inh for input `Nc1ncnc2c1ncn2-c1cccc2ccccc12` , no commentary.
## Result 0

## Task Identify %Inh associated with the compound `CN1C(=O)C(Nc2cc(Cl)c(O)c(Cl)c2)=C(c2ccc(Cl)cc2)C1=O`
## Result 0

----------
System: SRC
Conditions: concentration: 1 μM, replicates: in singlicate; n = 1
ENDPOINT NAME: %Inh (%)
# unit: % | format: bare number

* Cc1nc(N(C)[C@H]2CN(C(=O)CC#N)CC[C@H]2C)c2cc[nH]c2n1 | 11
* CCS(=O)(=O)c1ccc(OC)c(Nc2ncc(-c3ccc(F)cc3)o2)c1.Cl | 0
* Cc1cccc(-c2nc(Nc3ccc4c(cnn4C)c3)c3ccccc3n2)n1 | 11
* Cc1c(Cn2c(C)nn3c(=O)cc(N4CCO[C@H](C)C4)nc23)cccc1C(F)(F)F | 1
* FC(F)(F)c1ccc(-c2ncn(CCCN3CCOCC3)c2-c2ccncc2)cc1 | 0
* CCc1ccc(-c2ccc3c(c2)-c2nn(C)cc2S(=O)(=O)N3C)cc1 | 0
* CCC(=O)c1c(-c2ccccc2)c2cc(Cl)ccc2c(=O)n1Cc1ccc(C(=O)O)cc1 | 0
* COc1ccc(-n2cnc3c(N)ncnc32)cc1 | 0
* OCCCNc1nccc(-c2c(-c3cccc(C(F)(F)F)c3)nn3cc(C(F)(F)F)ccc23)n1 | 0
* CCn1c(-c2ccoc2)nc2cnccc21 | 0

## Task Give SRC %Inh for the following molecule: `COc1cccc(-n2cnc3c(N)ncnc32)c1`
## Result 13

## Task Using SRC as the test system, report measured %Inh of `CC(C)(C)c1ccc(C(=O)Nc2cn3cc(-c4ccccc4)ccc3n2)cc1` .
## Result 0

## Task Given `O=C1NC(=O)C(c2ccccc2)=C1Nc1cccc(O)c1` , report its %Inh on SRC.
## Result 0

## Task Provide the reported %Inh (system: SRC) for `Fc1cccc(CSc2nnc(-c3ccc4c(c3)CCO4)o2)c1`
## Result 5

## Task Report %Inh under test system SRC for `O=C(NCCNc1ccnc(Nc2ccc(F)cc2)n1)Nc1ccc2c(c1)OCO2` .
## Result 0

## Task For SRC, give the measured %Inh of the entry `COc1ccc(-c2cc3c(C)nc(N)nc3n([C@H]3CC[C@H](O)CC3)c2=O)cn1`
## Result 0

## Task Fill: %Inh (SRC) for this molecule `CCC(=O)c1c(-c2ccccc2)c2cc(Cl)ccc2c(=O)n1Cc1cc(S(C)(=O)=O)n(CC(N)=O)n1`
## Result 0

## Task Lab note: SRC assay, enter %Inh for `CN(C)c1cc(-c2ccc3c(N)n[nH]c3c2)nc(N)n1` here
## Result 12

## Task Enter recorded %Inh with SRC for `Cn1c(=O)c(F)c(Nc2ccc(I)cc2F)c2c(=O)n(OC[C@H](O)CO)cnc21` here.
## Result 11

## Task Identify measured %Inh obtained with SRC for `Cc1ccc(Oc2ccc(Nc3ncnc4cc[nH]c34)cc2C)cn1` .
## Result 16

## Task Supply %Inh measured with SRC for `COc1cccc(C2=C(N(C)c3ccccc3)C(=O)NC2=O)c1` .
## Result 0

## Task Tell me %Inh of `COc1ccc(-c2coc3ccc(-c4nnc(SCc5cccc(C#N)c5)o4)cc23)cc1` when tested on SRC.
## Result 3

----------
System: MST3
Construct: gene STK24
Conditions: concentration: 1 μM, replicates: in singlicate; n = 1
ENDPOINT NAME: %Inh (%)
Give the value in % but do not write % after it.

Worked examples, 5 compounds total:
* CCCC(=O)Nc1n[nH]c2ncc(-c3cccc4ccccc34)cc12 | 6
* Cn1c(=O)c(F)c(Nc2ccc(I)cc2F)c2c(=O)n(OC[C@H](O)CO)cnc21 | 0
* CCC(=O)c1c(-c2ccccc2)c2cc(Cl)ccc2c(=O)n1Cc1cc(C(=O)NC2CC2)n(C)n1 | 0
* Cc1ccc(-c2ccc3c(ccc4sc5c(c43)NC[C@@H](C)N=C5N(C)C)n2)cn1 | 1
* CCn1c(-c2nonc2N)nc2ccccc21 | 11

Next compound, %Inh to be filled in.
## Task Dear colleague, please send me the reported %Inh for `Cc1cc(Nc2nc(-c3cccc(C)n3)nc3ccccc23)ccn1` when you can.
## Result 0

----------
Form field: %Inh (one value per entry).
System: PCTK3
Construct: gene CDK18
Settings: concentration: 1 μM, replicates: in singlicate; n = 1
# number only, unit % dropped from output

- Cn1c(=O)c(F)c(Nc2ccc(I)cc2F)c2c(=O)n(OC[C@H](O)CO)cnc21: 5
- O=C(NCc1cccs1)c1cc(C(=O)c2c(Cl)cccc2Cl)c[nH]1 [GW823670]: 13
- C[C@@H]1CC[C@H](C(=O)NC2CCCCC2)CN1c1cc(-c2ccc3c(N)n[nH]c3c2)nc(N)n1 [GSK2291363]: 32
- Cc1nnc(-c2ccc3ncn(-c4ccc(S(C)=O)cc4)c3c2)o1 (centres unmarked): 14
- O=c1cc(N2CCOCC2)nc2n(Cc3ccc(F)c(Cl)c3)ccn12 [GSK2297099]: 2
- CCC(=O)c1c(-c2ccccc2)c2cc(Cl)ccc2c(=O)n1Cc1cc(S(C)(=O)=O)n(CCC(C)(C)O)n1: 13

## Task Consider the compound `CCCNC(=O)Nc1ccc(Oc2ncnc3ccn(C)c23)cc1` . State its measured %Inh.
## Result 0

## Task Supply recorded %Inh for Nc1nccc2scc(-c3ccc4c(c3)CCN4C(=O)Cc3ccccc3)c12 [GSK2576924] here.
## Result 17

Recorded values, source paper PMC5540273.
